tested on: HPK1 pSLP76 (Ser376); assay: Cellular assay phospho-SLP-76 (Ser376); assay type: cell-based, human; conditions: SLP76 Ser376 phosphorylation after αCD3/αCD28 stimulation; Jurkat (human) or EL-4 (mouse) cells, table does not say which; read-out: HPK1 pSLP76 IC50
Recorded IC50 values for a group of molecules are listed next.

Worked cases, IC50 given:
C[C@@H](c1ccc(-c2cc(C(N)=O)c3ncnc(N[C@H]4CCCNC4)c3n2)cc1)N1CCOCC1 (single isomer, unassigned) [Example 53]	500 to 1000 nM
N#C[C@H]1COCCN1Cc1ccc(-c2cc(C(N)=O)c3ncnc(N[C@H]4CCCNC4)c3n2)cc1 [Example 14]	> 1000 nM
NC(=O)c1cc(C2=CCC(N3CCOCC3)CC2)nc2c(N[C@H]3CCCNC3)ncnc12 (stereo partly drawn) [Example 17]	500 to 1000 nM

Inquiry: Dear colleague, I am looking for the recorded IC50 of the following molecule: NC(=O)c1cc(-c2ccc(C3(N4CCOCC4)CC3)cc2)nc2c(N[C@H]3CCCNC3)ncnc12 [Example 28]
Reply text: < 500 nM

Inquiry: Dear colleague, I am looking for the recorded IC50 of the following molecule: NC(=O)c1cc(-c2ccc(CN3CCOC[C@H]3C(F)(F)F)cc2)nc2c(N[C@H]3CCCNC3)ncnc12 [Example 15]
Reply text: < 500 nM

Inquiry: Dear colleague, I am looking for the recorded IC50 of the following molecule: COCCOc1ccc(-c2cc(C(N)=O)c3ncnc(N[C@H]4CCCNC4)c3n2)cc1 [Example 24]
Reply text: < 500 nM

---

test system: HPK1 pSLP76 (Ser376); assay: Cellular assay phospho-SLP-76 (Ser376); assay type: cell-based, human; conditions: SLP76 Ser376 phosphorylation after αCD3/αCD28 stimulation; Jurkat (human) or EL-4 (mouse) cells, table does not say which; read-out: HPK1 pSLP76 IC50
pIC50: −log10 of the molar value. Counter-ions that a name gives are not always drawn.
MEASURE: pIC50

Worked cases, pIC50 given:
NC(=O)c1cc(-c2ccc(OCC3(O)CCCC3)cc2)nc2c(N[C@H]3CCCNC3)ncnc12 [Example 41]	> 6.30
CC(C)(O)COc1ccc(-c2cc(C(N)=O)c3ncnc(N[C@@H]4CNC[C@@H](F)C4)c3n2)cc1 [Example 12]	> 6.30
NC(=O)c1cc(-c2ccc(CC3(F)CCOCC3)cc2)nc2c(N[C@H]3CCCNC3)ncnc12 [Example 44]	> 6.30
COCCOc1ccc(-c2cc(C(N)=O)c3ncnc(N[C@@H]4CNCC[C@H]4F)c3n2)cc1 [Example 48]	> 6.30

Inquiry: Dear colleague, I am looking for the recorded pIC50 of the following compound: C[C@@H]1CN(Cc2ccc(-c3cc(C(N)=O)c4ncnc(N[C@H]5CCCNC5)c4n3)cc2)CCO1 [Example 69, dihydrochloride]
Reply text: < 6.00

Inquiry: Dear colleague, I am looking for the recorded pIC50 of the following compound: CCn1cc(-c2cc(C(N)=O)c3ncnc(N[C@@H]4CNC[C@@H](F)C4)c3n2)c(C)n1 [Example 9]
Reply text: > 6.30

Inquiry: Dear colleague, I am looking for the recorded pIC50 of the following compound: CC1(N2CCOCC2)CC=C(c2cc(C(N)=O)c3ncnc(N[C@H]4CCCNC4)c3n2)CC1 (stereo partly shown) [Example 74]
Reply text: < 6.00

Measured values drawn from patent US20250320228A1 for this set.
